# TARGET_OR_SYSTEM: SARS-CoV-2 S on pseudovirions (Wuhan Hu-1 / IL1/2020, last 18 amino acids removed) (SARS-CoV-2, UniProt P0DTC2 14-1273)
# EXPERIMENT_SUMMARY: cell-based or functional assay
Listing: IC50, pseudotyped neutralization assay of selected binders
QUANTITY_KIND: IC50, pseudotyped neutralization assay (ng/mL)

COV_2173 (antibody, V domains shown, human IgG1) VH: QVQLQESGPGLVKPSETLSLTCSVSGDSISSSDYSWGWIRQPPGKGLEWIGTIYYIKNTYYNPSLRSRVTLSVDTSKNLFSLKLSSVTAADTAVYYCARERPPFDVVVVPAARPYNWFDPWGLGTLVIVSS VL: QSVLMQPPSVSGAPGQRVTISCTGSSSNIGAGYDVHWYQQLPGTAPKLLIYGNNNRPSGVPDRFSGSKSGTSASLAITGLQADDEADYYCQSYDSSLSGSKVFGGGTKLTVL | 4
COV_2039 (antibody, V domains shown, human IgG1) VH: QVQLVQSGAEVKKPGASVKVSCKVSGYMLIELSMHWVRQAPGKGLEWMGGFDPEDAETIYAQEFQGRVTMTEDTSTDTAYMELSSLRSEDTAVYYCTTGPAVTNRPADYWGPGTLVTVSS VL: QSVLTQPPSVSGAPGQRVTISCTGSSSNIGASYDVHWYQQLPGTAPKLLIYANSNRPSGVPDRFSGSKSGTSASLAITGLQAEDEADYYCQSYDSSLSYSVVFGGGTKLTVL | 6
COV_2165 (antibody, V domains shown, human IgG1) VH: EVQLVESGGGLVQPGGSLRLSCAASGFTFSSYSMNWVRQAPGKGLEWVSYISSSSSTIYYADYVKGRFTISRDNAKNSLYLQMNSLRAEDRAVYYCARVARRDVAPATIAAYFLDYWGQGTLVTVSS VL: EIVLTQSPATLSLSPGERATLSCRASQSLSSYLAWYQQKPGQAPRLLIYDASTRATGIPARFSGSGSGTDFTLTISSLEPEDFAVYYCQQRSTWPRGFTFGPGTKVDIK | 10
COV_2025 (antibody, V domains shown, human IgG1) VH: QVHLVQSGAEVKKPGASVKVSCKVSGYTLVELSVHWVRQAPAKGLEWIGGFDPEDGETIYAQKFQGRVTMTEDTSTDTAYMELTNLRSEDTAVYYCVTSQPFVSPNWFDPWGQGTLVTVSS VL: QSALTQPASVSGSPGQSITISCTGTSRDVGAYNYVSWYQQHPGKAPKLMIYEVTTRPSGVSNRFSGSKSGNTASLTISGLQAEDEADYYCSSYTGSRTLVFGTGTKVTVL | 9
